Measured log10(IC50) by item
- target.or.test.system: integrin α4β7 (Homo sapiens, UniProt P13612+P26010)
- Construct: lymphoma cell strain RPMI-8866 of human B cells, known to express integrin α4β7; endogenous in cells
- Sequence (P13612 34-1032): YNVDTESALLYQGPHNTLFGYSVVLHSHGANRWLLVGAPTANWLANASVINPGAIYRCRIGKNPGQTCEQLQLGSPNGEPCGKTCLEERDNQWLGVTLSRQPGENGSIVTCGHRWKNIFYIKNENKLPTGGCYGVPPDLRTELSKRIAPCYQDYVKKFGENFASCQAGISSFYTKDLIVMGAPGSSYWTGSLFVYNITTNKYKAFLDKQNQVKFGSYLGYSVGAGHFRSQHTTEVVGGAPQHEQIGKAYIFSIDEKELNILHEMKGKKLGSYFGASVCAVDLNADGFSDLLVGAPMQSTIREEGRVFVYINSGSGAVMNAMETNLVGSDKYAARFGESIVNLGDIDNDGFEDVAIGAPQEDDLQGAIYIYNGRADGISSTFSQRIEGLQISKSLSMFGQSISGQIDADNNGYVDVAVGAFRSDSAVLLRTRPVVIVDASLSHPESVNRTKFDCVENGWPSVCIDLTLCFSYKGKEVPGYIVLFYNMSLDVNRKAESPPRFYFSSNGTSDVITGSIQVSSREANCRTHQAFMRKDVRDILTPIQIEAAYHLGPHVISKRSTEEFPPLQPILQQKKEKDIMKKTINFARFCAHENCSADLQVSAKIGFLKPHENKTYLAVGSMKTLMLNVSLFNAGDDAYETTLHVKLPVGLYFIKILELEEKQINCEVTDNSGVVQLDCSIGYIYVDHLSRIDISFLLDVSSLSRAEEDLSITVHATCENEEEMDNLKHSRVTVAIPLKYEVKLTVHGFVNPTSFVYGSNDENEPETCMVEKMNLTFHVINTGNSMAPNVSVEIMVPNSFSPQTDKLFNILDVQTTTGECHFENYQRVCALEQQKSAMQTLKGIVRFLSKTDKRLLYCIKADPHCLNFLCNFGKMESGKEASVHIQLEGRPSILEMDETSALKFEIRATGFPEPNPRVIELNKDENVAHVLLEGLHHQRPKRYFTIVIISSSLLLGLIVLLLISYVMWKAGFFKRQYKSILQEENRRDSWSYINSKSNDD
- Sequence (P26010 20-798): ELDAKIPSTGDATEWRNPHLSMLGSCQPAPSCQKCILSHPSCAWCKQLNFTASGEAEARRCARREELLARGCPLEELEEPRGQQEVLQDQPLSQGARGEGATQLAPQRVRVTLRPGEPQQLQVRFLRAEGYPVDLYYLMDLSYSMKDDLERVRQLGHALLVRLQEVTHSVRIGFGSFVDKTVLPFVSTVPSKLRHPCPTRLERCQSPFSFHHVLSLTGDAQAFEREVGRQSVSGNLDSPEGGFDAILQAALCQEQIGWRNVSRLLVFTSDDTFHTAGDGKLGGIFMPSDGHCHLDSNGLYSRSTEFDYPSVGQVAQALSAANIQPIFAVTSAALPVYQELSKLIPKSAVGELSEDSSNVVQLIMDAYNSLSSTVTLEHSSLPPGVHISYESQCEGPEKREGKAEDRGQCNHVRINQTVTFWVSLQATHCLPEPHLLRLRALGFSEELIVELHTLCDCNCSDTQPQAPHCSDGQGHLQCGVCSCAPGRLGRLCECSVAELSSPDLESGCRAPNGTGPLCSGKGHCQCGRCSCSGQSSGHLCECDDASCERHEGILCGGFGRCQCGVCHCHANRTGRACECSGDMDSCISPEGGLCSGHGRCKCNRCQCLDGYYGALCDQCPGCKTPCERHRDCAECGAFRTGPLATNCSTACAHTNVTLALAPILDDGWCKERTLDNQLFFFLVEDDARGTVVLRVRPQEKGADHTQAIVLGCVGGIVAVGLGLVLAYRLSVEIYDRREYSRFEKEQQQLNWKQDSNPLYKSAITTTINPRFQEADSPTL
- experimental.protocol: VCAM antagonistic activity (VCAM-1/α4β7 binding assay), RPMI-8866 cells binding to VCAM-1
- assay.setup: RPMI-8866 human B lymphoma cells binding to recombinant human VCAM-1; binding buffer with 4 mM MnCl2
Heads up, the numbers here are log10 of IC50 in nM units.

Reference set, count: 6
[[record]]
compound = "Cn1c(=O)n(-c2ccc(C[C@H](NC(=O)c3c(Cl)cccc3Cl)C(=O)O)cc2)c(=O)c2cccnc21 [Example 74]"
target_or_test_system = "integrin α4β7 (Homo sapiens, UniProt P13612+P26010)"
measurement = 0.40

[[record]]
compound = "O=C(N[C@@H](Cc1ccc(-n2c(=O)c3cc([N+](=O)[O-])ccc3n(C3CCC3)c2=O)cc1)C(=O)O)c1c(Cl)cccc1Cl [Example 59]"
target_or_test_system = "integrin α4β7 (Homo sapiens, UniProt P13612+P26010)"
measurement = 1.55

[[record]]
compound = "O=C(N[C@@H](Cc1ccc(-n2c(=O)c3cc([N+](=O)[O-])ccc3n(C3CC3)c2=S)cc1)C(=O)O)c1c(Cl)cccc1Cl [Example 68]"
target_or_test_system = "integrin α4β7 (Homo sapiens, UniProt P13612+P26010)"
measurement = 0.18

[[record]]
compound = "O=C(N[C@@H](Cc1ccc(-n2c(=O)[nH]c3ccc(Cl)cc3c2=O)cc1)C(=O)O)c1c(Cl)cccc1Cl [Example 47]"
target_or_test_system = "integrin α4β7 (Homo sapiens, UniProt P13612+P26010)"
measurement = 1.88

[[record]]
compound = "Cc1cccc2c(=O)n(-c3ccc(C[C@H](NC(=O)c4c(Cl)cccc4Cl)C(=O)O)cc3)c(=O)[nH]c12 [Example 50]"
target_or_test_system = "integrin α4β7 (Homo sapiens, UniProt P13612+P26010)"
measurement = 0.90

[[record]]
compound = "O=C(N[C@@H](Cc1ccc(-n2c(=O)[nH]c3ccc(F)cc3c2=O)cc1)C(=O)O)c1c(Cl)cccc1Cl [Example 52]"
target_or_test_system = "integrin α4β7 (Homo sapiens, UniProt P13612+P26010)"
measurement = 1.74


Exam item: Please give measured log10(IC50) of the following entry: Cn1c(=O)n(-c2ccc(C[C@H](NC(=O)c3c(Cl)cccc3Cl)C(=O)O)cc2)c(=O)c2ccc(C(F)(F)F)cc21 [Example 185]
Marked response: 0.43

Exam item: Report log10(IC50), nothing else, for this compound: O=C(N[C@@H](Cc1ccc(-n2c(=O)c3cc([N+](=O)[O-])ccc3n(Cc3ccccc3)c2=S)cc1)C(=O)O)c1c(Cl)cccc1Cl [Example 69]
Marked response: 0.40
